- Assayed System: L-lactate dehydrogenase A chain (Mus musculus, UniProt P06151)
- Assay Protocol: Inhibition of LDHA in wild type CD1 mouse primary hepatocyte assessed as inhibition of lactate production using pyruvate as substrate measured after 30 mins by LC-MS analysis
- Assay type: tissue-based
Label true when IC50 < 200 nM; otherwise false.

Lab note: confirm whether the reported IC50 for this compound is below 200 nM, equality not counting. compound: NS(=O)(=O)c1ccc(Cc2c(-c3ccc(F)c(-c4cccc(Oc5[nH]nnc5C(=O)O)c4)c3)nn(-c3nc(C(=O)O)cs3)c2CC2CC2)cc1F true

Same thing, different compound: NS(=O)(=O)c1ccc(Cc2c(-c3ccc(F)c(Oc4[nH]nnc4C(=O)O)c3)nn(-c3nc(C(=O)O)cs3)c2CC2CC2)cc1F false

Same thing, different compound: NS(=O)(=O)c1ccc(Cc2c(-c3cccc(Sc4[nH]nnc4C(=O)O)c3)nn(-c3nc(C(=O)O)cs3)c2CC2CC2)cc1F true

Same thing, different compound: NS(=O)(=O)c1ccc(Cc2c(-c3ccc(F)c(-c4ccc(-c5nn[nH]c5C(=O)O)cc4)c3)nn(-c3nc(C(=O)O)cs3)c2CC2CC2)cc1F true

Same thing, different compound: NS(=O)(=O)c1ccc(Cc2c(-c3ccc(F)c(-c4ccc(Sc5nn[nH]c5C(=O)O)cc4)c3)nn(-c3nc(C(=O)O)cs3)c2CC2CC2)cc1F false

---

- Assayed System: 2-Hydroxyacid oxidase 1 (Homo sapiens, UniProt Q9UJM8)
- Sequence (Q9UJM8 whole entry): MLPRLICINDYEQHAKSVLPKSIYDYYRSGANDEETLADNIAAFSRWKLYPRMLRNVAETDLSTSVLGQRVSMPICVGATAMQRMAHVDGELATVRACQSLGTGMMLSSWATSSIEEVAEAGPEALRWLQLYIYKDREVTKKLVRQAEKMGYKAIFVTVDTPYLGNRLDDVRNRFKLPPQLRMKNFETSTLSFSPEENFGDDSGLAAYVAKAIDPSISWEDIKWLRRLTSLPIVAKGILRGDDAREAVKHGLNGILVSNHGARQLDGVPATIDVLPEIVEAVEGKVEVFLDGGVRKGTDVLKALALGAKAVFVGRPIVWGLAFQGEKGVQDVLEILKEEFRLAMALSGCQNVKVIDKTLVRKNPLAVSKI
- Assay Protocol: Inhibition of recombinant human GOX expressed in Escherichia coli C41 (DE3) using glycolate as substrate preincubated for 10 mins followed by substrate addition measured by Amplex red and horseradish peroxidase based fluorescence assay
Attribute Measured: IC50 (nM)
Kindly answer with a numeric value in nM, unit omitted.

Below: 3 compounds and their reported IC50.
Smiles Notation	Units Symbol	IC50
NS(=O)(=O)c1ccc(Cc2c(-c3ccc(F)c(-c4ccc(Oc5nn[nH]c5C(=O)O)cc4)c3)nn(-c3nc(C(=O)O)cs3)c2CC2CC2)cc1F	nM	1.2
O=C(O)c1[nH]nnc1Sc1ccc(Cl)cc1	nM	6.7
NS(=O)(=O)c1ccc(Cc2c(-c3ccc(F)c(-c4cccc(Oc5[nH]nnc5C(=O)O)c4)c3)nn(-c3nc(C(=O)O)cs3)c2CC2CC2)cc1F	nM	0.9

What IC50 value was documented for this compound, NS(=O)(=O)c1ccc(Cc2c(-c3ccc(F)c(-c4ccc(Sc5nn[nH]c5C(=O)O)cc4)c3)nn(-c3nc(C(=O)O)cs3)c2CC2CC2)cc1F ? 1.1

Same thing, different compound: NS(=O)(=O)c1ccc(Cc2c(-c3cccc(Sc4[nH]nnc4C(=O)O)c3)nn(-c3nc(C(=O)O)cs3)c2CC2CC2)cc1F 4.7

Same thing, different compound: NS(=O)(=O)c1ccc(Cc2c(-c3ccc(F)c(Oc4[nH]nnc4C(=O)O)c3)nn(-c3nc(C(=O)O)cs3)c2CC2CC2)cc1F 11

Same thing, different compound: NS(=O)(=O)c1ccc(Cc2c(-c3ccc(F)c(-c4ccc(-c5nn[nH]c5C(=O)O)cc4)c3)nn(-c3nc(C(=O)O)cs3)c2CC2CC2)cc1F 3.6

---

- Assayed System: UniProt:P06151
- Assay Protocol: Inhibition of recombinant mouse LDHA expressed in BL21 gold (DE3) using sodium pyruvate as substrate preincubated for 10 mins followed by sodium pyruvate and […] addition
Attribute Measured: IC50 (nM)
Kindly answer with a numeric value in nM, unit omitted.

Below: 6 compounds and their reported IC50.
Smiles Notation	Units Symbol	IC50
NS(=O)(=O)c1ccc(Cc2c(-c3ccc(F)c(Oc4[nH]nnc4C(=O)O)c3)nn(-c3nc(C(=O)O)cs3)c2CC2CC2)cc1F	nM	0.3
NS(=O)(=O)c1ccc(Cc2c(-c3ccc(F)c(-c4cccc(Oc5[nH]nnc5C(=O)O)c4)c3)nn(-c3nc(C(=O)O)cs3)c2CC2CC2)cc1F	nM	0.2
NS(=O)(=O)c1ccc(Cc2c(-c3cccc(Sc4[nH]nnc4C(=O)O)c3)nn(-c3nc(C(=O)O)cs3)c2CC2CC2)cc1F	nM	0.7
NS(=O)(=O)c1ccc(Cc2c(-c3ccc(F)c(-c4ccc(-c5nn[nH]c5C(=O)O)cc4)c3)nn(-c3nc(C(=O)O)cs3)c2CC2CC2)cc1F	nM	0.4
NS(=O)(=O)c1ccc(Cc2c(-c3ccc(F)c(-c4ccc(Oc5nn[nH]c5C(=O)O)cc4)c3)nn(-c3nc(C(=O)O)cs3)c2CC2CC2)cc1F	nM	0.4
NS(=O)(=O)c1ccc(Cc2c(-c3cccc(-c4ccccc4)c3)nn(-c3nc(C(=O)O)cs3)c2CC2CC2)cc1	nM	0.1

Param readout= IC50; system= UniProt:P06151; entry= NS(=O)(=O)c1ccc(Cc2c(-c3ccc(F)c(-c4ccc(Sc5nn[nH]c5C(=O)O)cc4)c3)nn(-c3nc(C(=O)O)cs3)c2CC2CC2)cc1F ; returns value. 0.2

Measured values drawn from ChEMBL document CHEMBL4825721 for this set.
